Molecular target: UniProt Q7Z2W7
Sequence (Q7Z2W7 whole entry): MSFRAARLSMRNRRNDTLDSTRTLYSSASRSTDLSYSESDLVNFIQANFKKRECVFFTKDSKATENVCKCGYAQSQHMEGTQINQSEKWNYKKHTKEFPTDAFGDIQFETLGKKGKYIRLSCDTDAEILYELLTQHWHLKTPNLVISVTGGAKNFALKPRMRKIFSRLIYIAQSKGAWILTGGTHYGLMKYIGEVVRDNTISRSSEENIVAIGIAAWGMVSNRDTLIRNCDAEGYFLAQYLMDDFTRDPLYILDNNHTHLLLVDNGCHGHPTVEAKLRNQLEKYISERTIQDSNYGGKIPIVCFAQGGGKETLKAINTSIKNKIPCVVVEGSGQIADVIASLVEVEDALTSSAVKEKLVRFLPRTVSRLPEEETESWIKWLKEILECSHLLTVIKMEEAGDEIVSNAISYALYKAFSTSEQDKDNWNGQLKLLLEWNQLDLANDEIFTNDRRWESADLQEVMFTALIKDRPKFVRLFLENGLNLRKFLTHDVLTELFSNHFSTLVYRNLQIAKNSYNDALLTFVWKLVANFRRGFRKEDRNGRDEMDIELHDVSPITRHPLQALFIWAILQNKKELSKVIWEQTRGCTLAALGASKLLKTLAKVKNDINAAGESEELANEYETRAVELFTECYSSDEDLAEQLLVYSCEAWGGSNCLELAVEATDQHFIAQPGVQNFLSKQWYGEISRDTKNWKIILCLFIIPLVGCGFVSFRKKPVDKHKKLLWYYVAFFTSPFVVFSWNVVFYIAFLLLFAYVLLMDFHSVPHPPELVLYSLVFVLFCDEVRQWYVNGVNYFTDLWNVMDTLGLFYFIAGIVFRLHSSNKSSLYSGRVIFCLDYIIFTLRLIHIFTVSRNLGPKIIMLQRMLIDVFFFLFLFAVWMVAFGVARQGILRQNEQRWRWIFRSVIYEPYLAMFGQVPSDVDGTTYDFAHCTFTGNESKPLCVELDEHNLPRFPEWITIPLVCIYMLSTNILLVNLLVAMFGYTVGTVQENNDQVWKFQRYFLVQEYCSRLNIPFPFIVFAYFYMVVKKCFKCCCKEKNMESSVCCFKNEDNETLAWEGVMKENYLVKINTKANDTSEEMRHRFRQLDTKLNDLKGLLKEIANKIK
Test: Luminescence readout assay for measuring intracellular calcium (aequorin), hTRPM8 antagonism
Conditions: CHO cell line expressing human TRPM8 and aequorin; activation by icilin, L-menthol or cold buffer (table does not say which)
Threshold 1 µM. IC50 below it: TRUE. IC50 at it or above: FALSE.

Some solved entries appear below for comparison.
CCCc1cccnc1[C@@H](NC(=O)Nc1cccnc1)c1ccc(C(F)(F)F)cc1 [Example 168] : TRUE
COc1ccc([C@H](NC(=O)Nc2cccnc2)c2ncccc2C(F)(F)F)cc1F [Example 5] : TRUE
Cc1ccc([N+](=O)[O-])c(NC(=O)N[C@@H](c2ccc(C(F)(F)F)cc2)c2ncccc2C(F)(F)F)c1 [Example 143, acetate] : FALSE
COC(=O)[C@H](Cc1ccccc1)NC(=O)N[C@@H](c1ccc(C(F)(F)F)cc1)c1ncccc1C(F)(F)F [Example 136, acetate] : FALSE

QUERY: Is IC50 of COC(=O)[C@H](CCSC)NC(=O)N[C@@H](c1ccc(C(F)(F)F)cc1)c1ncccc1C(F)(F)F [Example 78, acetate] strictly below 1 µM?
RESULT: FALSE

* * *

Biological target: UniProt Q7Z2W7
Assay: Luminescence readout assay for measuring intracellular calcium (aequorin), hTRPM8 antagonism
Conditions: CHO cell line expressing human TRPM8 and aequorin; activation by icilin, L-menthol or cold buffer (table does not say which)
Below, each entry is listed with its recorded log10 of IC50.
Record value = log10 of IC50 given in nM.

Sample records with log10 of IC50:
CCOC(=O)[C@H](C)NC(=O)N[C@@H](c1ccc(C(F)(F)F)cc1)c1ncccc1C(F)(F)F [Example 94] : 3.23
CC(C)(C)NC(=O)N[C@@H](c1ccc(C(F)(F)F)cc1)c1ccccc1Br [Example 116] : 2.12
CC#Cc1cccnc1[C@@H](NC(=O)Nc1cccnc1)c1ccc(C(F)(F)F)cc1 [Example 51] : 1.57
O=C(N[C@@H](c1ccc(OC(F)(F)F)c(F)c1)c1ncccc1F)OC1CCOCC1 [Example 176] : 2.32
O=C(Nc1cncnc1)N[C@@H](c1ccc(C(F)(F)F)cc1)c1ncccc1C(F)(F)F [Example 57] : 2.22
COc1cccc([C@@H](C)NC(=O)N[C@@H](c2ccc(C(F)(F)F)cc2)c2ncccc2C(F)(F)F)c1 [Example 128, acetate] : 3.61

The recorded log10 of IC50 for C[C@H](NC(=O)N[C@@H](c1ccc(C(F)(F)F)cc1)c1ccccc1Br)C(F)(F)F [Example 154] is 2.95

Summary for this compound, O=C(Nc1cccc(I)c1)N[C@@H](c1ccc(C(F)(F)F)cc1)c1ncccc1C(F)(F)F [Example 124, acetate] : log10 of IC50 is 2.85

Measured log10 of IC50 of CC(=O)c1cccc(NC(=O)N[C@@H](c2ccc(C(F)(F)F)cc2)c2ncccc2C(F)(F)F)c1 [Example 86, acetate] : 1.49

Summary for this compound, C=C(C)c1cccc(C(C)(C)NC(=O)N[C@@H](c2ccc(C(F)(F)F)cc2)c2ncccc2C(F)(F)F)c1 [Example 105, acetate] : log10 of IC50 is 2.74

Note to self: log10 of IC50 recorded for COc1cccc(NC(=O)N[C@@H](c2ccc(C(F)(F)F)cc2)c2ncccc2C(F)(F)F)c1 [Example 52, acetate] was 1.79

# compound O=C(Nc1cncnc1)N[C@@H](c1ccc(C(F)(F)F)c(F)c1)c1ncccc1C(F)(F)F [Example 155, acetate] ; its log10 of IC50 = 1.79
